# STUDY SYSTEM: Metabotropic glutamate receptor 5 (Rattus norvegicus)
# ASSAY INFO: Antagonist activity at rat mGluR5 stably expressed in HEK293 cells assessed as inhibition of glutamate-induced intracellular calcium level by Fluo-4AM dye-based fluorescence assay
OBSERVED PROPERTY: IC50
Write your answer as a measured quantity: the number, then the unit.

What measured IC50 goes with `CC1(NC(=O)c2ccc(C#Cc3ccccn3)cn2)COC1` ?
731 nM

* * *

# ASSAY INFO: Ratio of drug level in brain to plasma in (unknown origin)
# Format: ADME, cell-free
# EXPERIMENTAL CONDITIONS: brain and plasma; read-out: BPR
OBSERVED PROPERTY: Kp
Response field accepts a number only; no unit should be typed.

What measured Kp goes with `O=C(NC1CCC1)c1ccc(C#Cc2cccc(F)c2)nc1` ?
0.13

* * *

# STUDY SYSTEM: Metabotropic glutamate receptor 5 (Rattus norvegicus) (UniProt P31424)
# Sequence (P31424 21-1203 limits assumed): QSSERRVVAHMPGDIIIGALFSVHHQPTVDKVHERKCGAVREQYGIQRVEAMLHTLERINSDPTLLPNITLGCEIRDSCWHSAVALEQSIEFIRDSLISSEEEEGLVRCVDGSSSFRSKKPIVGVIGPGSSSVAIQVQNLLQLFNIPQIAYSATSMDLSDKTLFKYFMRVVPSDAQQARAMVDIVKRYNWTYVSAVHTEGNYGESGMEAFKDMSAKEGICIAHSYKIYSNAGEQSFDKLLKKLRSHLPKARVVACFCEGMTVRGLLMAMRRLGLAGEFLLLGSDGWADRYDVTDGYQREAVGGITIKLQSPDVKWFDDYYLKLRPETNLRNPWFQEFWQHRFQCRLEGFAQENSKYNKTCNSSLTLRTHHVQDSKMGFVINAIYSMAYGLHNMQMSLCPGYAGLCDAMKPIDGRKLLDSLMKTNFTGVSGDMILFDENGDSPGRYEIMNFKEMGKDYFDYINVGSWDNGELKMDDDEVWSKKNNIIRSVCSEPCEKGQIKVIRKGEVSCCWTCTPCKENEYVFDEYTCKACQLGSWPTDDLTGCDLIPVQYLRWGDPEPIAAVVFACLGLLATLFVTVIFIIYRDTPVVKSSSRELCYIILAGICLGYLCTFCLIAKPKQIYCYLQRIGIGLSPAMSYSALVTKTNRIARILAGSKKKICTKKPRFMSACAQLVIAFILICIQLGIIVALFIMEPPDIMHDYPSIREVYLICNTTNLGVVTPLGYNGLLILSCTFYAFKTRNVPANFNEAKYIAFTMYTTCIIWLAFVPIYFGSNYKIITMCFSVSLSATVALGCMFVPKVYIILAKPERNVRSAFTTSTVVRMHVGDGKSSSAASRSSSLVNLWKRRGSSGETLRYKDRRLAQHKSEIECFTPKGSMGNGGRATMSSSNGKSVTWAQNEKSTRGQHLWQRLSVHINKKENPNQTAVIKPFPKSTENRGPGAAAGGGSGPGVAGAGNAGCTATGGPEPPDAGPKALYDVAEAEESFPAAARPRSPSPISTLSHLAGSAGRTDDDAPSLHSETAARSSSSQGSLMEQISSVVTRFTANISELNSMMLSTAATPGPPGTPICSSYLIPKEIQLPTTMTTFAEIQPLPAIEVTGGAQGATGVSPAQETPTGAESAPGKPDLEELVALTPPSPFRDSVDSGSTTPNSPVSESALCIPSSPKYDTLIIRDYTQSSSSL
# ASSAY INFO: Positive allosteric modulation of rat mGluR5 stably expressed in HEK293 cells assessed as increase in intracellular calcium level by Fluo-4AM dye-based fluorescence assay relative to glutamate
# Type: functional, cell-based
OBSERVED PROPERTY: Efficacy (%)
Lab book: enter the figure in %, no units written.

What measured Efficacy goes with `C[C@@H](NC(=O)c1cnc(C#Cc2cccc(F)c2)nc1)C(C)(C)O` ?
68.7

What measured Efficacy goes with `C[C@@H](NC(=O)c1ccc(C#Cc2cccc(F)n2)cn1)C(C)(C)O` ?
63

What measured Efficacy goes with `C[C@@H](NC(=O)c1ccc(C#Cc2cccc(F)c2)cn1)C(C)(C)C` ?
66

What measured Efficacy goes with `C[C@@H](NC(=O)c1ncc(C#Cc2cccc(F)c2)cn1)C(C)(C)O` ?
64.1

What measured Efficacy goes with `CC1(CCNC(=O)c2ccc(C#Cc3cccc(F)c3)cn2)COC1` ?
65.7

* * *

# STUDY SYSTEM: Cytochrome P450 1A2 (Homo sapiens, UniProt P05177)
# Sequence (P05177 whole entry): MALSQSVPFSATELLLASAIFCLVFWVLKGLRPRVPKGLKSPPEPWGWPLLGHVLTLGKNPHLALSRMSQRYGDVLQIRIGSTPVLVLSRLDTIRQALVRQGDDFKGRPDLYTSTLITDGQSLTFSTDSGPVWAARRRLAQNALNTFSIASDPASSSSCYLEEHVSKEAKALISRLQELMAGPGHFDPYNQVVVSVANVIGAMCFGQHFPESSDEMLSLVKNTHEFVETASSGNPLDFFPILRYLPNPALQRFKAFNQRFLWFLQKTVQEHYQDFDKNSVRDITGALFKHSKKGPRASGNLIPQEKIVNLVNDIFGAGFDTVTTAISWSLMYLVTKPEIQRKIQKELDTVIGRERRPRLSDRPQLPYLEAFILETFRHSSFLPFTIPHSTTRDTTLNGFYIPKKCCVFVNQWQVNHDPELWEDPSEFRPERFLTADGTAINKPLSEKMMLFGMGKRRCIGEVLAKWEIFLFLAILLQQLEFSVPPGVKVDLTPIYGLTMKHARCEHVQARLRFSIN
# ASSAY INFO: Inhibition of human CYP1A2
# Assay type: ADME
OBSERVED PROPERTY: pIC50
The quantity pIC50 is defined as the negative base-10 logarithm of the molar concentration.

What measured pIC50 is associated with `CC1(NC(=O)c2ccc(C#Cc3cccc(F)c3)cn2)COC1` on Cytochrome P450 1A2 (Homo sapiens, UniProt P05177)?
5.28

* * *

Would you mind telling me the reported Emax of each entry?
# STUDY SYSTEM: UniProt:P31424
# ASSAY INFO: Agonist activity at rat mGluR5 stably expressed in HEK293 cells assessed as increase in intracellular calcium level by Fluo-4AM dye-based fluorescence assay relative to glutamate
# Format: cell-based
# EXPERIMENTAL CONDITIONS: read-out: Efficacy
Lab book: enter the figure in %, no units written.

What measured Emax goes with `C[C@@H](NC(=O)c1ncc(C#Cc2cccc(F)c2)cn1)C(C)(C)O` ?
19.2

What measured Emax goes with `O=C(NCC1CCC1)c1ccc(C#Cc2cccc(F)c2)cn1` ?
4.7

What measured Emax goes with `C[C@@H](NC(=O)c1cnc(C#Cc2cccc(F)c2)cn1)C(C)(C)O` ?
17.2

What measured Emax goes with `C[C@@H](NC(=O)c1ccc(C#Cc2cccc(F)n2)cn1)C(C)(C)O` ?
8.3

What measured Emax goes with `C[C@@H](NC(=O)c1ccc(C#Cc2ccccc2F)cn1)C(C)(C)O` ?
29.6

What measured Emax goes with `C[C@@H](NC(=O)c1ccc(C#Cc2ccc(F)cc2)cn1)C(C)(C)O` ?
38.4

What measured Emax goes with `C[C@H](NC(=O)c1ccc(C#Cc2cccc(F)c2)cn1)C(F)(F)F` ?
21.4

What measured Emax goes with `C[C@@H](NC(=O)c1ccc(C#Cc2cccc(F)c2)cc1)C(C)(C)O` ?
43.6

What measured Emax goes with `C[C@@H](NC(=O)c1ccc(C#CC2CCCC2)cn1)C(C)(C)O` ?
14.8

What measured Emax goes with `C[C@H](NC(=O)c1ccc(C#Cc2cccc(F)c2)cn1)C(C)(C)C` ?
20

What measured Emax goes with `Cc1ccccc1C#Cc1ccc(C(=O)N[C@H](C)C(C)(C)O)nc1` ?
24.1

What measured Emax goes with `C[C@@H](NC(=O)c1ccc(C#Cc2cccc(F)c2)cn1)C(C)(C)F` ?
42.8

What measured Emax goes with `CC(C)(CO)NC(=O)c1ccc(C#Cc2cccc(F)c2)cn1` ?
9.3

What measured Emax goes with `CC(C)[C@H](C)NC(=O)c1ccc(C#Cc2cccc(F)c2)cn1` ?
13.1

What measured Emax goes with `Cc1nc(C#Cc2cccc(F)c2)ccc1C(=O)N[C@H](C)C(C)(C)O` ?
9.2

What measured Emax goes with `C[C@@H](NC(=O)c1ccc(C#Cc2ccc(F)cn2)cn1)C(C)(C)O` ?
13.5

What measured Emax goes with `CCCNC(=O)c1ccc(C#Cc2cccc(F)c2)cn1` ?
8.3

What measured Emax goes with `C[C@@H](NC(=O)c1ccc(C#Cc2ccccc2)cn1)C(C)(C)O` ?
43.2

What measured Emax goes with `C[C@@H](NC(=O)c1ccc(C#Cc2cccc(F)c2)nc1)C(C)(C)O` ?
26.6

What measured Emax goes with `C[C@@H](NC(=O)c1ccc(C#Cc2ccc(F)cc2F)cn1)C(C)(C)O` ?
38.2

What measured Emax goes with `C[C@@H](NC(=O)c1ccc(C#Cc2cccc(F)c2)cn1)C(C)(C)C` ?
31.2

What measured Emax goes with `Cc1cccc(C#Cc2ccc(C(=O)N[C@H](C)C(C)(C)O)nc2)c1` ?
20.8

What measured Emax goes with `C[C@@H](NC(=O)c1ccc(C#Cc2cccnc2)cn1)C(C)(C)O` ?
25.9

What measured Emax goes with `C[C@@H](NC(=O)c1ccc(C#Cc2ccncc2)cn1)C(C)(C)O` ?
22.4

What measured Emax goes with `C[C@@H](NC(=O)c1ccc(C#Cc2cccc(F)c2)nn1)C(C)(C)O` ?
16.5

* * *

# STUDY SYSTEM: Metabotropic glutamate receptor 5 (Rattus norvegicus, UniProt P31424)
# Sequence (P31424 whole entry): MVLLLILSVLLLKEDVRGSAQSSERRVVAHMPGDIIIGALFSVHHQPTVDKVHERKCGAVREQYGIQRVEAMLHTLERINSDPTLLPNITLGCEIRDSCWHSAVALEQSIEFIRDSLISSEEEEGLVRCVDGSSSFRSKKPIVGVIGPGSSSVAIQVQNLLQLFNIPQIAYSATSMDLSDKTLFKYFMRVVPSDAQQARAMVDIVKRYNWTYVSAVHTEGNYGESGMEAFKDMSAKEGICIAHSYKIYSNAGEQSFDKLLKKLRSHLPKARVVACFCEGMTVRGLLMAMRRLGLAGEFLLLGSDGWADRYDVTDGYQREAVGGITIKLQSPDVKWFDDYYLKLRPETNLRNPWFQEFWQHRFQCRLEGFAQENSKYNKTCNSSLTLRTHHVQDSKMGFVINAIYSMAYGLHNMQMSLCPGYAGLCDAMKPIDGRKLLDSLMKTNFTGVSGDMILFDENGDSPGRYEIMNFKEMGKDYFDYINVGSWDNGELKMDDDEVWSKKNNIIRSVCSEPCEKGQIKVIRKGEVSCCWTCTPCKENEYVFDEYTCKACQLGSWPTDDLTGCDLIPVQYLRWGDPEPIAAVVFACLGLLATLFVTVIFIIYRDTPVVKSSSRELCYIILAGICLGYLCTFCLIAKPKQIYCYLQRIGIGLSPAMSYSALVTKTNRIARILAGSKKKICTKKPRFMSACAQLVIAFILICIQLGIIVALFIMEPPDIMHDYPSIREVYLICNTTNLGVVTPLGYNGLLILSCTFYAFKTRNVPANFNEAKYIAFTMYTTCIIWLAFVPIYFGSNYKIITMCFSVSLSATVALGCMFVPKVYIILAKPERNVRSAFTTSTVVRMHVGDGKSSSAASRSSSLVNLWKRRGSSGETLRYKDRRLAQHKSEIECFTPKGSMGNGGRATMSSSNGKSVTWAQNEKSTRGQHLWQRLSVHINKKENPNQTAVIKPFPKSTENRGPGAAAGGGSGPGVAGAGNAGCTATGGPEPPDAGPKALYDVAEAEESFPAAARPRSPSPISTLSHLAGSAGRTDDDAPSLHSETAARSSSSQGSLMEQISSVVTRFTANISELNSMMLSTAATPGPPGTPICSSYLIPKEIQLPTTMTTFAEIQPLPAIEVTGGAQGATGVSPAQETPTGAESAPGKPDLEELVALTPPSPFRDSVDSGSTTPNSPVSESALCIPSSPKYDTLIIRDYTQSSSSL
# ASSAY INFO: Positive allosteric modulation of rat mGluR5 stably expressed in CHO cells assessed as calcium mobilization
# Format: functional, cell-based
OBSERVED PROPERTY: EC50 (nM)
Lab book: enter the figure in nM, no units written.

What measured EC50 goes with `O=C(NC1CCC1)c1ccc(C#Cc2cccc(F)c2)nc1` ?
39

* * *

Would you mind telling me the reported EC50 of each entry?
# STUDY SYSTEM: Metabotropic glutamate receptor 5 (Rattus norvegicus, UniProt P31424)
# ASSAY INFO: Positive allosteric modulation of rat mGluR5

What measured EC50 goes with `C[C@@H](NC(=O)c1ccc(C#Cc2cccc(F)c2)cn1)C(C)(C)O` ?
1.5 nM

What measured EC50 goes with `O=C(N[C@H]1C[C@H](O)C1)c1ccc(C#Cc2cccc(F)c2)cn1` ?
17 nM

What measured EC50 goes with `CC(C)NC(=O)c1ccc(C#Cc2ccncc2)cn1` ?
24 nM

What measured EC50 goes with `O=C(NC1CCC1)c1ccc(C#Cc2cccc(F)c2)cn1` ?
4 nM

What measured EC50 goes with `CC(C)(C)c1nnc2n1CC[C@H](c1nc(-c3ccc(F)cc3)no1)C2` ?
42 nM

What measured EC50 goes with `O=C(c1ccc(C#Cc2cccc(F)c2)nc1)N1CCC(O)CC1` ?
200 nM

* * *

# STUDY SYSTEM: UniProtKB P31424
# ASSAY INFO: Positive allosteric modulation of rat mGluR5 stably expressed in HEK293 cells assessed as increase in intracellular calcium level by Fluo-4AM dye-based fluorescence assay relative to glutamate
# Type: functional, cell-based
So basically: Efficacy at 60% or higher? That is YES. Lower than 60%? That is NO.

Answer whether Efficacy of `CC(C)[C@@H](C)NC(=O)c1ccc(C#Cc2cccc(F)c2)cn1` is greater than or equal to 60%.
YES

Answer whether Efficacy of `CC1(NC(=O)c2ccc(C#Cc3cccc(F)c3)cn2)COC1` is greater than or equal to 60%.
NO

Answer whether Efficacy of `CCCNC(=O)c1ccc(C#Cc2cccc(F)c2)cn1` is greater than or equal to 60%.
YES

Answer whether Efficacy of `Cc1nc(C#Cc2ccc(C(=O)N[C@H](C)C(C)(C)O)nc2)cs1` is greater than or equal to 60%.
YES

Answer whether Efficacy of `C[C@@H](NC(=O)c1ccc(C#Cc2cccc(F)c2)nn1)C(C)(C)O` is greater than or equal to 60%.
YES

Answer whether Efficacy of `O=C(NCC1CCC1)c1ccc(C#Cc2cccc(F)c2)cn1` is greater than or equal to 60%.
YES

Answer whether Efficacy of `C[C@@H](NC(=O)c1nc(C#Cc2cccc(F)c2)cs1)C(C)(C)O` is greater than or equal to 60%.
YES

Answer whether Efficacy of `C[C@@H](NC(=O)c1ccc(C#Cc2ccccn2)cn1)C(C)(C)F` is greater than or equal to 60%.
NO

Answer whether Efficacy of `Cc1ccc(C#Cc2ccc(C(=O)N[C@H](C)C(C)(C)O)nc2)cc1` is greater than or equal to 60%.
YES

Answer whether Efficacy of `Cc1cc(C#Cc2cccc(F)c2)cnc1C(=O)N[C@H](C)C(C)(C)O` is greater than or equal to 60%.
YES

Answer whether Efficacy of `C[C@@H](NC(=O)c1ccc(C#Cc2ccncc2)cn1)C(C)(C)O` is greater than or equal to 60%.
YES

Answer whether Efficacy of `C[C@@H](NC(=O)c1ccc(C#Cc2ccc(F)cc2)cn1)C(C)(C)O` is greater than or equal to 60%.
YES

Answer whether Efficacy of `C[C@@H](NC(=O)c1ccc(C#Cc2cccc(F)c2)cn1)C(C)(C)O` is greater than or equal to 60%.
YES

Answer whether Efficacy of `C[C@@H](NC(=O)c1ccc(C#Cc2cccc(F)c2)cn1)C(F)(F)F` is greater than or equal to 60%.
NO

Answer whether Efficacy of `C[C@@H](NC(=O)c1ccc(C#Cc2cccc(F)c2)nc1)C(C)(C)O` is greater than or equal to 60%.
YES

Answer whether Efficacy of `C[C@@H](NC(=O)c1ccc(C#Cc2cccc(F)c2)cn1)C(C)(C)F` is greater than or equal to 60%.
YES

Answer whether Efficacy of `CC(C)(C)CNC(=O)c1ccc(C#Cc2cccc(F)c2)cn1` is greater than or equal to 60%.
YES

Answer whether Efficacy of `C[C@@H](NC(=O)c1ccc(C#Cc2cc(F)ccn2)cn1)C(C)(C)O` is greater than or equal to 60%.
YES

Answer whether Efficacy of `C[C@@H](NC(=O)c1ccc(C#Cc2cccnc2)cn1)C(C)(C)O` is greater than or equal to 60%.
YES

Answer whether Efficacy of `CC(C)[C@H](C)NC(=O)c1ccc(C#Cc2cccc(F)c2)cn1` is greater than or equal to 60%.
YES

Answer whether Efficacy of `C[C@@H](NC(=O)c1ccc(C#Cc2cccc(F)c2)cc1)C(C)(C)O` is greater than or equal to 60%.
NO

Answer whether Efficacy of `O=C(NCC(F)(F)F)c1ccc(C#Cc2cccc(F)c2)cn1` is greater than or equal to 60%.
YES

Answer whether Efficacy of `CC1(NC(=O)c2ccc(C#Cc3ccncc3)cn2)COC1` is greater than or equal to 60%.
NO

Answer whether Efficacy of `C[C@@H](NC(=O)c1ccc(C#CC2CC2)cn1)C(C)(C)O` is greater than or equal to 60%.
YES

Answer whether Efficacy of `C[C@@H](NC(=O)c1cnc(C#Cc2cccc(F)c2)cn1)C(C)(C)O` is greater than or equal to 60%.
YES

Answer whether Efficacy of `C[C@@H](NC(=O)c1ccc(C#Cc2ccccn2)cn1)C(C)(C)C` is greater than or equal to 60%.
YES

Answer whether Efficacy of `CC(C)(O)CCNC(=O)c1ccc(C#Cc2cccc(F)c2)cn1` is greater than or equal to 60%.
YES

Answer whether Efficacy of `C[C@H](NC(=O)c1ccc(C#Cc2cccc(F)c2)cn1)C(C)(C)C` is greater than or equal to 60%.
YES

Answer whether Efficacy of `C[C@@H](NC(=O)c1ccc(C#Cc2ccc(F)cn2)cn1)C(C)(C)O` is greater than or equal to 60%.
YES

Answer whether Efficacy of `Cc1cccc(C#Cc2ccc(C(=O)N[C@H](C)C(C)(C)O)nc2)c1` is greater than or equal to 60%.
YES

Answer whether Efficacy of `C[C@@H](NC(=O)c1ccc(C#CC2CCCC2)cn1)C(C)(C)O` is greater than or equal to 60%.
YES
